Cited source: patent US4891432A

protocol.text: Toxicity test (acute toxicity)
Type: in vivo
experimental.conditions: mouse, in vivo, ip; intraperitoneal administration, male ddY mice
attribute.measured: LD50

Supply measured LD50 of `CC(C)(CCCCOc1ccc(OCCCCCn2ccnc2)cc1)C(=O)O` in your reply. > 800 mg/kg

====

protocol.text: Toxicity test (acute toxicity)
Assay type: in vivo
experimental.conditions: mouse, in vivo; oral administration, male ddY mice
attribute.measured: LD50

Item CC(C)(CCCCOc1ccc(OCCCCCn2ccnc2)cc1)C(=O)O [Example 45] : provide LD50 > 1600 mg/kg
